The compounds listed here are annotated with their CC50.
# Tested on: SF-295
# Experimental Protocol: Growth inhibition of human SF295 cells after 48 hrs by sulforhodamine B assay
# Assay type: functional, cell-based
# Reported Conditions: SF-295, 48 h, read-out: LC50 (the source's name)
Report as a plain number; the unit µM is understood.

Asked: Reported CC50 for `O=C(Nc1cccc(-n2cc(-c3ccncc3)c(-c3ccc(Cl)c(O)c3)n2)c1)c1ccc(N2CCOCC2)c(C(F)(F)F)c1` : what is it?
Given back: 37

Asked: Reported CC50 for `O=C(Nc1cccc(-n2cc(-c3ccncc3)c(-c3ccc(Cl)c(O)c3)n2)c1)Nc1cc(C(F)(F)F)cc(C(F)(F)F)c1` : what is it?
Given back: 4.39

Asked: Reported CC50 for `COc1cc(-c2nn(-c3cccc(NC(=O)Nc4cccc(C(F)(F)F)c4)c3)cc2-c2ccncc2)ccc1Cl` : what is it?
Given back: 3.2

Asked: Reported CC50 for `COc1cc(-c2nn(-c3cccc(NC(=O)Nc4ccc(Cl)c(C(F)(F)F)c4)c3)cc2-c2ccncc2)ccc1Cl` : what is it?
Given back: 14.9
